- Tested on: mouse myeloma SP2/0
- test: CCK-8 cell survival assay, SP2/0
- Type: cell-based
- condition_context: Mus musculus; CCK-8, 48 h; read-out: IC50 value of the inhibition on SP2/0
measured_endpoint: IC50 (µM)
Numbers only, in µM.

Query block: Consider the molecule COc1ccc2c(c1)C13CCNC1(C)C1(C)c4[nH]c5ccc(OC)cc5c4CCN1C3N2 (stereo not shown) . State its measured IC50.
Result block: 15.1

====

- System: human normal cell 293T
- test: MTT cytotoxicity assay, human normal cell 293T
- Type: cell-based
- condition_context: 48 h, read-out: IC50 value of the inhibition on human normal cell 293T
measured_endpoint: IC50 (µM)
Answers are plain numbers, in µM.

Query block: # assay system human normal cell 293T: give IC50 of N.N.[Cl][Pt][Cl] [Cisplatin, cisplatin, reference compound]
Result block: 17.3

Each recorded value in this set is attributed to patent US20240140950A1.
